Biological target: T1, EIN3 82-352 (optimal DBD) (Arabidopsis thaliana, UniProt O24606 82-352)
T1 sequence: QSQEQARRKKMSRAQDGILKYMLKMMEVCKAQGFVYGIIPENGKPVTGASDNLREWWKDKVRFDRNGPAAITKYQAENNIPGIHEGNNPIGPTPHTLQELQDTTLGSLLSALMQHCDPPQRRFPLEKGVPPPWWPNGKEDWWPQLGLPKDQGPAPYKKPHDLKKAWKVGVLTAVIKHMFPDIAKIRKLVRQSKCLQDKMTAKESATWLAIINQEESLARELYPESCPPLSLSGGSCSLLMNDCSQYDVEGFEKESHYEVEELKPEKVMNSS
Assay: EMSA; EMSA: 1 nM biotin probe, 10 mM Tris-HCl pH 7.5, 40 mM KCl, 3 mM MgCl2, 1 mM EDTA, 10% glycerol, 1 mM DTT, 1 ug poly(dI-dC) in 20 uL, room temperature, 30 min
Conditions: protein: recombinant; tags: N-terminal His6 (pET-28a); chain copies: 2; label: 3' biotin on forward strand; blunt
parameter.measured: Kd

binder="1EBS-S10 (dsDNA) DNA 1: AAGATACATGCAAAAAAGCGATCGACTT DNA 2: AAGTCGATCGCTTTTTTGCATGTATCTT" parameter_measured=Kd result="~690 nM"
binder="2EBS-S10 (dsDNA) DNA 1: AAGATACATGCAAAAAAGCATGTATCTT DNA 2: AAGATACATGCTTTTTTGCATGTATCTT" parameter_measured=Kd result="~110 nM"
binder="2EBS-S10-R (dsDNA) DNA 1: AAGATGTATGCAAAAAAGCATACATCTT DNA 2: AAGATGTATGCTTTTTTGCATACATCTT" parameter_measured=Kd result="~1240 nM"
binder="0EBS-S10 (dsDNA) DNA 1: AAGTCGATCGCAAAAAAGCGATCGACTT DNA 2: AAGTCGATCGCTTTTTTGCGATCGACTT" parameter_measured=Kd result="~2280 nM"
